Tested on: Helicobacter pylori J99
TEST_METHOD_NOTES: Paper disc diffusion test, inhibition zone on agar plate
Type: cell-based
CONDITION_DETAILS: Helicobacter pylori, J99; 4 mg/disc; blank disc 8 mm; read-out: inhibition growth diameter
We use 20 mm as the dividing line for zone of inhibition at 4 mg/disc: on or above the line is Condition met, below is Condition not met.

Request: Answer whether zone of inhibition at 4 mg/disc of O=C(O)COc1ccccc1 is greater than or equal to 20 mm.
Response: Condition not met

Request: Answer whether zone of inhibition at 4 mg/disc of Nc1ccc(CC(=O)O)cc1 is greater than or equal to 20 mm.
Response: Condition not met

Request: Answer whether zone of inhibition at 4 mg/disc of CN(C)c1ccc(C(=O)O)cc1 is greater than or equal to 20 mm.
Response: Condition met

Request: Answer whether zone of inhibition at 4 mg/disc of Nc1cc(N)cc(C(=O)O)c1 is greater than or equal to 20 mm.
Response: Condition not met

Request: Answer whether zone of inhibition at 4 mg/disc of O=C(O)c1ccccc1 is greater than or equal to 20 mm.
Response: Condition met
